# Test system: MCF7 breast
# test.method.notes: NCI tumour cell line growth inhibition, 48 h
Please respond with reported TGI for every item in the list.
Give just the numeric value; µM need not be written.

Problem: Sample COc1cc(/C=C/c2cc(/C=C/c3ccc(O)c(OC)c3)n(C(=O)c3ccc(Cl)cc3)n2)ccc1O — what was its TGI?
Solution: 16

Problem: Same again, this time with Oc1ccc(C=Nc2ccccc2O)cc1
Solution: 90.8

Problem: Same again, this time with COc1ccc2c3c1OC1C(F)C=CC4(O)C(C2)NCCC314 (centres undefined)
Solution: 5.25

====

# Test system: NCI/ADR-RES ovarian
# test.method.notes: NCI tumour cell line growth inhibition, 48 h
Where a SMILES comes first, the peptide text is derived from it. [ ]: non-standard residue; d: D form. The star is where a group is joined. ξ: configuration not given here. ξNMe2Val = CC(C)C(C(=O)*)N(C)C; NMeV = CN[CH](C(=O)O)C(C)C; NHBn = c1ccc(CN*)cc1
measure: TGI

Problem: Sample O=C(NCCCCN1CCOCC1)c1cc2ccccc2o1 — what was its TGI?
Solution: > 100 µM

Problem: Same again, this time with Cc1[nH]c(=O)nc2nc3cc(Cl)cc(Cl)c3c(NC(C)(CO)CO)c12
Solution: > 100 µM

Problem: Same again, this time with COc1cc(C(=O)NC2CCc3cc(OC)c(OC)c(OC)c3-c3ccc(OC)c(=O)cc32)cc(OC)c1OC (stereo not given)
Solution: 70.3 µM

Problem: Same again, this time with Cc1cc(S(=O)(=O)Nc2n[nH]c(-c3ccc(Cl)cc3)n2)c(SSc2cc(Cl)c(C)cc2S(=O)(=O)Nc2n[nH]c(-c3ccc(Cl)cc3)n2)cc1Cl
Solution: > 100 µM

Problem: Same again, this time with CC1=C(C#N)C(=C(C#N)C#N)OC1(C)Cc1ccccc1 (stereo not given)
Solution: > 100 µM

Problem: Same again, this time with CO/C=C/C=C(\C#N)C(=O)OC
Solution: > 100 µM

Problem: Same again, this time with OC1(C(Sc2cc(C(F)(F)F)cc(C(F)(F)F)c2)Sc2cc(C(F)(F)F)cc(C(F)(F)F)c2)C=CCCC1 (stereo not given)
Solution: 10.1 µM

Problem: Same again, this time with O=C(COc1ccc(Cl)c(Cl)c1)Nc1ccc[n+](Cc2ccc(S(=O)(=O)F)c(Cl)c2)c1
Solution: > 100 µM

Problem: Same again, this time with Cc1c(-c2cnccn2)ssc1=S
Solution: > 100 µM

Problem: Same again, this time with CNC(=O)OCc1nc(SC)n(C)c1CO
Solution: > 100 µM

Problem: Same again, this time with Cc1ccc2c(c1)SC1=Nc3sc4cc(C)ccc4[n+]3CN12
Solution: > 100 µM

Problem: Same again, this time with Nc1nc(Cl)cc(NCC2(O)CCC2)n1
Solution: > 100 µM

Problem: Same again, this time with CC1Cc2c(Cl)ncnc2N(C)c2ccc(Cl)cc21 (stereo not given)
Solution: 32.3 µM

Problem: Same again, this time with O=C1N[C@@H]2[C@@H](O)[C@@H](O)[C@H](O)C[C@H]2c2cc3c(c(O)c21)OCCO3
Solution: 5.38 µM

Problem: Same again, this time with CC(C)C(NC(=O)C(C(C)C)N(C)C)C(=O)N(C)C(C(=O)N1CCCC1C(=O)N1CCCC1C(=O)NCc1ccccc1)C(C)C (stereo not given) (ξNMe2Val-V[NMeV]PP-NHBn; configuration not given here)
Solution: 7.39 µM

Problem: Same again, this time with CCOC(=O)Cc1csc(NC(NC(=O)OCC)(C(=O)OCC)C(F)(F)F)n1 (stereo not given)
Solution: > 100 µM

Problem: Same again, this time with O=C1/C(=C\c2ccc(Cl)cc2)N=C(c2ccccc2)N1n1c(=O)cn[nH]c1=S
Solution: > 100 µM

Problem: Same again, this time with COc1ccc2ncn(-c3cc(O[C@H](C)c4ccccc4C(F)(F)F)c(C(N)=O)s3)c2c1
Solution: 0.185 µM

Problem: Same again, this time with FC1(F)[Se]C2C3CCC(C3)C2C1(F)F (stereo not given)
Solution: > 100 µM

Problem: Same again, this time with Nc1nc(/C=C\c2ccc([N+](=O)[O-])s2)nc(N2CCN(c3ccccc3)CC2)n1
Solution: 53 µM

====

# Tested on: MDA-N
# test.method.notes: NCI tumour cell line growth inhibition, 48 h
measure: TGI (µM)
Give just the numeric value; µM need not be written.

Problem: Sample COc1ccc2c(c1)Cc1c(NCCN(C)C)ccc(C(=O)NCCCN(C)CCCNC(=O)c3ccc(NCCN(C)C)c4c3Nc3ccc(OC)cc3C4)c1N2 — what was its TGI?
Solution: 0.224

Problem: Same again, this time with CC(/C=C/C(=O)NO)=C\C(C)C(=O)c1ccc(N(C)C)cc1 (centres undefined)
Solution: 11.5

Problem: Same again, this time with COc1ccc(Nc2nc3cc(N)cc(N)c3nc2-c2ccccc2)cc1
Solution: 36

Problem: Same again, this time with OC1(C(Sc2cc(C(F)(F)F)cc(C(F)(F)F)c2)Sc2cc(C(F)(F)F)cc(C(F)(F)F)c2)C=CCCC1 (centres undefined)
Solution: 8.16

Problem: Same again, this time with Cc1ccc(O)c(C(c2cccc(C(c3cc(C)ccc3O)c3cc(C)ccc3O)c2)c2cc(C)ccc2O)c1
Solution: 3.35

====

# System: K-562 leukemia
# test.method.notes: NCI tumour cell line growth inhibition, 48 h
measure: TGI

Problem: Sample C[C@H](C1CC(C)(O)C(C)(O)C(O)O1)[C@H]1CC[C@H]2[C@@H]3[C@@H]4O[C@@H]4[C@@]4(O)CC=CC(=O)[C@]4(C)[C@H]3CC[C@]12C (some centres undefined) — what was its TGI?
Solution: > 50 µM

Problem: Same again, this time with O=C(/C=C\c1ccccc1O)c1ccc(O)cc1O
Solution: > 100 µM

Problem: Same again, this time with O=c1oc2ccc(I)cc2c(=O)n1-c1ccc(Br)cc1F
Solution: > 71.7 µM

Problem: Same again, this time with CCN(CC)CCCNc1nccc2c(C)c3c(cc12)c1cnccc1n3C
Solution: 1.04 µM

Problem: Same again, this time with Cc1ccc(C)n1-c1ccccc1C1C=Cn2c(=O)nnc3c(OC(C)C)c(OC(C)C)c(O)c1c32 (centres undefined)
Solution: > 100 µM

Problem: Same again, this time with O=c1c2cc(-c3ccccc3)cnc2sn1-c1ccc(Br)cc1
Solution: > 100 µM

Problem: Same again, this time with N#CC12C(=O)N3C(=NC(c4ccco4)NC3c3ccco3)C1(C#N)C(c1ccco1)NC1=C2CCCC1 (centres undefined)
Solution: > 100 µM

Problem: Same again, this time with COc1ccc2c3c1OC1C(F)C=CC4(O)C(C2)NCCC314 (centres undefined)
Solution: > 100 µM

Problem: Same again, this time with O=C1/C(=C/c2cccc(Cl)c2)CCCc2ccccc21
Solution: 34 µM

====

Please respond with reported TGI for every item in the list.
# Test system: IGROV1 ovarian
# test.method.notes: NCI tumour cell line growth inhibition, 48 h

Problem: Sample COc1ccc(C(CC2(c3ccc(OC)cc3)SCCCS2)NC(C)=O)cc1 (stereo unspecified) — what was its TGI?
Solution: > 100 µM

Problem: Same again, this time with O=C(O)c1cc(-c2ccc3cc4c(cc3c2)OCO4)nc2ccccc12
Solution: > 100 µM

Problem: Same again, this time with C/C(=N\N=C(N)N)C(CN1CCCCC1)C(c1ccccc1)c1c(O)c2ccccc2oc1=O (stereo unspecified)
Solution: > 100 µM

Problem: Same again, this time with O=c1oc2ccc(I)cc2c(=O)n1-c1ccc(Br)cc1F
Solution: 13.3 µM

Problem: Same again, this time with COc1ccccc1/C=C/c1ccnc2ccccc12
Solution: 19.9 µM

Problem: Same again, this time with CN(Cc1ccccc1)Cn1ccnc1
Solution: > 100 µM

====

Please respond with reported TGI for every item in the list.
# Test system: SNB-19 CNS
# test.method.notes: NCI tumour cell line growth inhibition, 48 h

Problem: Sample O=C(O)CSc1n[nH]c(=O)[nH]c1=O — what was its TGI?
Solution: > 100 µM

Problem: Same again, this time with CCN(CC)CCCNc1nccc2c(C)c3c(cc12)c1cnccc1n3C
Solution: 1.51 µM

Problem: Same again, this time with COc1cc(C(=O)NC2CCc3cc(OC)c(OC)c(OC)c3-c3ccc(OC)c(=O)cc32)cc(OC)c1OC (stereo unspecified)
Solution: > 100 µM

Problem: Same again, this time with CCOC1OC(COC(=O)C(C)(C)C)C(O)CC1n1cc(C)c(=O)[nH]c1=O (stereo unspecified)
Solution: > 100 µM

Problem: Same again, this time with O=C1/C(=C\c2ccc(Cl)cc2)N=C(c2ccccc2)N1n1c(=O)cn[nH]c1=S
Solution: > 100 µM

Problem: Same again, this time with CC(=O)c1nc2ccccc2n1C(C)C(=O)c1ccccc1 (stereo unspecified)
Solution: > 100 µM

Problem: Same again, this time with N#C/C(=C\c1cc(O)cc(O)c1)C(N)=O
Solution: > 100 µM

Problem: Same again, this time with COc1cc(/C=C2\C(=O)N(C(=O)Cc3ccccc3)N=C2C)cc(OC)c1OC
Solution: > 100 µM

Problem: Same again, this time with NCCSSCc1ccccc1CSSCCN
Solution: > 100 µM

Problem: Same again, this time with CC1Cc2c(Cl)ncnc2N(C)c2ccc(Cl)cc21 (stereo unspecified)
Solution: > 100 µM

Problem: Same again, this time with CN(CCS(=O)(=O)N1C(=O)C2CCCN2C(=O)[C@@H]1Cc1ccccc1)C(=O)OCc1ccccc1 (stereo partly specified)
Solution: > 100 µM
